Assay: Comparison of solubilities of sample Id 1 and Id 2 in three different solvents
Assay type: physicochemical
Details: methanol, organic solvent or mixture, thermodynamic from solid, solvent Methanol; read-out: Solubility
ATTRIBUTE MEASURED: solubility (mg/mL)

CCOc1ccc2c(c1)Sc1cccc(OC)c1C2=C1CCN(C)CC1.Cl 156

====

Experiment: Comparison of solubilities of sample Id 1 and Id 2 in three different solvents
Format: physicochemical
Conditions: 2-propanol, organic solvent or mixture, thermodynamic from solid, solvent 2-Propanol; read-out: Solubility
Procedure: It has also been confirmed that sample 2 has a higher solubility than the starting material. The starting HCl salt (sample Id 1) and the salt received from the low temperature evaporation (sample Id 2) were dissolved in 3 solvents with different capacities in solubility, namely methanol, 2-propanol and 96% ethanol (see Table 3 below). The solubility of sample Id 1 and sample Id 2 is shown in the rightmost column of Table 3 in mg/ml.
ATTRIBUTE MEASURED: solubility (µg/mL)

CCOc1ccc2c(c1)Sc1cccc(OC)c1C2=C1CCN(C)CC1.Cl 5000
